Target chain: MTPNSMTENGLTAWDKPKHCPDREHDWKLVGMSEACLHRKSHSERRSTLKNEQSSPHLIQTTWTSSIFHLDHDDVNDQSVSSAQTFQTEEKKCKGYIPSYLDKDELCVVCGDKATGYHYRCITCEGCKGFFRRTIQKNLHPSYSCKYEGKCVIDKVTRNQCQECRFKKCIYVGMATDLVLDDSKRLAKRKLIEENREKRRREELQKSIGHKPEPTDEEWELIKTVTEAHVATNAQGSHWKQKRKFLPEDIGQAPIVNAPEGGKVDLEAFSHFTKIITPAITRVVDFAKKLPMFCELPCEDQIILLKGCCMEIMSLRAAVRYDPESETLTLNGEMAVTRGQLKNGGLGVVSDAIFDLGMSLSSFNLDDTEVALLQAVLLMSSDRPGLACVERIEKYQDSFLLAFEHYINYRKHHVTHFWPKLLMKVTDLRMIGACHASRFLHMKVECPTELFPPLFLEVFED
Reported metric: Kd (nM)
Reply numerically in nM, unit not repeated.

Identify measured Kd corresponding to Cc1cc(C[C@H](N)C(=O)O)cc(C)c1Oc1ccc(O)c(C(C)C)c1
9.8
